Numbers sourced from patent US20180214548A1.

- system.tested: T1, cyno PD-1, full length, on CHO-K1 cells (cyno monkey, UniProt B0LAJ3 25-288)
- T1 construct: also called CHO-K1-cPD-1; cPD-1
- procedure.text: flow cytometry on CHO-K1-cPD-1 cells
quantity.measured: MFI at 0.1 nM (MFI)
# value in MFI; strip the unit string

Request: Record request: MFI at 0.1 nM value, item chimeric anti-PD-1 antibody 76G5B3 (antibody, V domains shown) VH: QVQLVESGGGVVQPGRSLRLSCAASGFTFSDYGFHWVRQAPGKGLEWVAVIWYDGSNEYYTDSVKGRFTISRDNSKNTLYLQMNSLRAEDTAMYFCVVNPFDYWGQGTLVTVSS VL: DIQMTQSPSSLSAFVGDRVTITCRASQGINHYLAWYQQKPGKAPNLLILAASTLLSGVPSRFGGRGSGTDFTLIISSLQPEDVATYYCQKYDSAPYTFGQGTKLEIK
Response: 28.4
